B1: HDV Ribozyme (parent)
chain: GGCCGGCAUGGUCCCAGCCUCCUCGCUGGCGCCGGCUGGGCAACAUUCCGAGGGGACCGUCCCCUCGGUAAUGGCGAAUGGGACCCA

Variants of: B1
measurement.notes: self-cleavage, relative activity (ratio to wild type); higher = more cleavage; co-transcriptional
Would you kindly list self-cleavage for each of these variants?
Answers are plain numbers.

1. C15G U69A ... 0.604
2. A16U U60C ... 0.831
3. C48G G50A ... 0.798
4. G6U A51C ... 0.656
5. C57G U72C ... 0.587

Please go through the list and note self-cleavage for each variant.
1. G31A C49U
2. C75A C85A

Reply:
1: 0.404; 2: 0.175
